Where do the numbers come from? From patent US20240208992A1.

- systemUnderTest: human F508del-CFTR (Homo sapiens, UniProt P13569, DEL508-508)
- Sequence (P13569 with tags, fused parts or gaps DEL508-508): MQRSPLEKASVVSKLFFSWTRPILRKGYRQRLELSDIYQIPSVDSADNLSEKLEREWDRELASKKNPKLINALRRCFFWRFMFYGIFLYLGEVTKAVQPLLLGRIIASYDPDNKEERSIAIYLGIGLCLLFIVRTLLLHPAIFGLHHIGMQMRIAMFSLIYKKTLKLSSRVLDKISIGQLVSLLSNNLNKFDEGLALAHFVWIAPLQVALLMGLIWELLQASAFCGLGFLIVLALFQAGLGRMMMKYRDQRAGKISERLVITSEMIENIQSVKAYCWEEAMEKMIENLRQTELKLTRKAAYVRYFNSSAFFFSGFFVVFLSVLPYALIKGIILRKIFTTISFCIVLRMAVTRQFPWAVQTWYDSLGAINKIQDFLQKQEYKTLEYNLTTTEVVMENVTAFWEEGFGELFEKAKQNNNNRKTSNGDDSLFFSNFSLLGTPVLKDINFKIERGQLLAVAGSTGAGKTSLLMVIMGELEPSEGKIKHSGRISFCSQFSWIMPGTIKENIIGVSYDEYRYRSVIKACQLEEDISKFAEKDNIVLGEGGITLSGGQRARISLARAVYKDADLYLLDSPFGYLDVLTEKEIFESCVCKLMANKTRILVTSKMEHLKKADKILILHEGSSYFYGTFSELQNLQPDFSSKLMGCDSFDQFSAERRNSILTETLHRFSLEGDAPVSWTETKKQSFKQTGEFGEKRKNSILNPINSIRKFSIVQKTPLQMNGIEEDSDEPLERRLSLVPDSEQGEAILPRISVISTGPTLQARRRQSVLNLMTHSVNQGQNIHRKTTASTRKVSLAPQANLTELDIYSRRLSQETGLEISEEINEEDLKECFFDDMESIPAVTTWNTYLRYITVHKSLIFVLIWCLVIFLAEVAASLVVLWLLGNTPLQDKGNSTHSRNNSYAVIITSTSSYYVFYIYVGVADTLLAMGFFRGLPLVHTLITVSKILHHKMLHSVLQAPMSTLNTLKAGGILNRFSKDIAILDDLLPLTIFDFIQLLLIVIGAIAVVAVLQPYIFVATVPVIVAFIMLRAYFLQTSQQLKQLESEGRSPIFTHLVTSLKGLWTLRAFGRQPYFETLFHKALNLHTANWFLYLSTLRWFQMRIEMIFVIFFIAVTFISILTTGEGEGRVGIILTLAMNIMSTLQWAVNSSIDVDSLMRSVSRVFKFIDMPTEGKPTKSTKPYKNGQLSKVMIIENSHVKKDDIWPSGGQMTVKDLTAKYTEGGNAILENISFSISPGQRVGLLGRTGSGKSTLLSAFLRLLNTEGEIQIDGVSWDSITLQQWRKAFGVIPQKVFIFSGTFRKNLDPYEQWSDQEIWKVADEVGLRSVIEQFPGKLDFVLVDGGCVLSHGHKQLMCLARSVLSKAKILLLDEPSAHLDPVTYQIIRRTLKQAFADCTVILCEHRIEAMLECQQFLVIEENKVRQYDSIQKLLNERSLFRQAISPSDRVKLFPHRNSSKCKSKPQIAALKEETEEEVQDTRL
- experimentalProtocol: F508del-CFTR cell surface expression (corrector activity), DiscoveRx ß-galactosidase complementation chemiluminescence assay in recombinant U2OS cell line
- cond: EC50, F508del-CFTR cell surface expression, U2OS cell line, 16h compound incubation; geomean values
valueType: EC50 (µM)
Reply numerically in µM, unit not repeated.

What does the data say about its EC50? Entry: CC(C)C[C@H]1C(=O)N2CCOC[C@@H]2C(=O)N[C@H](Cc2ccccc2)COc2cnc3ccccc3c2C(=O)N[C@H](C(=O)NCCc2cccc(F)c2)CC(=O)N1C 0.587

Quick one: CCOc1cccc(CCNC(=O)[C@@H]2CC(=O)N(C)[C@@H](CC(C)C)C(=O)N(C)CC(=O)N[C@H](Cc3ccccc3)COc3cc4c(cc3C(=O)N2)OCO4)c1 0.191

Quick one: CC(C)C[C@H]1C(=O)N2CCCC[C@@H]2C(=O)N[C@H](Cc2ccccc2)COc2cnc3ccccc3c2C(=O)N[C@H](C(=O)NCCc2ccc(F)c(F)c2)CC(=O)N1C 0.255

====

What EC50 was measured for each of the following?
- systemUnderTest: human F508del-CFTR (Homo sapiens, UniProt P13569, DEL508-508)
- experimentalProtocol: F508del-CFTR cell surface expression (corrector activity), DiscoveRx ß-galactosidase complementation chemiluminescence assay in recombinant U2OS cell line
- cond: EC50, F508del-CFTR cell surface expression, U2OS cells, 16h compound incubation; geomean values
Reply numerically in nM, unit not repeated.

What does the data say about its EC50? Entry: COc1cccc(CCNC(=O)[C@@H]2CC(=O)N(C)[C@@H](CC(C)C)C(=O)N3CCCC[C@@H]3C(=O)N[C@H](Cc3ccccc3)COc3ccc4c(cnn4C)c3C(=O)N2)c1 278

Quick one: COc1cccc(CCNC(=O)[C@@H]2CC(=O)N(C)[C@@H](CC(C)C)C(=O)N3CCN(S(=O)(=O)CCN4CCOCC4)C[C@@H]3C(=O)N[C@H](Cc3ccccc3)COc3ccc4ccccc4c3C(=O)N2)c1 693

Quick one: COc1cc(CCNC(=O)[C@@H]2CC(=O)N(C)[C@@H](CC(C)C)C(=O)N3CCN(C(C)C)C[C@@H]3C(=O)N[C@H](Cc3ccccc3)COc3ccc4ccccc4c3C(=O)N2)cc(OC)c1 80

Quick one: COc1cccc(CCNC(=O)[C@@H]2CC(=O)N(C)[C@@H](CC(C)C)C(=O)N(C)C3(CC3)C(=O)N[C@H](Cc3ccccc3)COc3ncc4ccccc4c3C(=O)N2)c1 219

Quick one: COCCCS(=O)(=O)N1CCN2C(=O)[C@H](CC(C)C)N(C)C(=O)C[C@@H](C(=O)NCCc3cccc(OC)c3)NC(=O)c3c(ccc4ccccc34)OC[C@@H](Cc3ccccc3)NC(=O)[C@H]2C1 207

Quick one: COc1cccc(CCNC(=O)[C@@H]2CC(=O)N(C)[C@@H](CC(C)C)C(=O)N3CCCC[C@@H]3C(=O)N[C@H](Cc3ccccc3)COc3ccc4c(c3C(=O)N2)OCC4)c1 250

Quick one: CC(C)C[C@H]1C(=O)N2CC[C@H](c3ccccc3)C[C@H]2C(=O)N[C@H](Cc2ccccc2)COc2cnc3ccccc3c2C(=O)N[C@H](C(=O)NCCc2cc(C3CC3)no2)CC(=O)N1C (single isomer, unassigned) 262

Quick one: COc1cccc(CCNC(=O)[C@@H]2CC(=O)N(C)[C@@H](CC(C)C)C(=O)N3CCN(C4CC4)C[C@@H]3C(=O)N[C@H](Cc3ccccc3)COc3ccc4nc(C)oc4c3C(=O)N2)c1 437

Quick one: COc1cc2c(cn1)OC[C@@H](Cc1ccccc1)NC(=O)C1(CC1)N(C)C(=O)[C@H](CC(C)C)N(C)C(=O)C[C@@H](C(=O)NCCc1cc(C3CC3)no1)NC2=O 748

Quick one: Cc1cc(CCNC(=O)[C@@H]2CC(=O)N(C)[C@@H](CC(C)C)C(=O)N(C)[C@H](C)C(=O)N[C@H](Cc3ccccc3)COc3cnc4ccccc4c3C(=O)N2)on1 423

====

- systemUnderTest: human F508del-CFTR (Homo sapiens, UniProt P13569, DEL508-508)
- experimentalProtocol: F508del-CFTR cell surface expression (corrector activity), DiscoveRx ß-galactosidase complementation chemiluminescence assay in recombinant U2OS cell line
- cond: EC50, F508del-CFTR cell surface expression, U2OS cells, 16h compound incubation; geomean of several measurements
Note to self: EC50 under 90 nM means yes (1), ties and anything higher get no (0).

Determine if COc1noc(CCNC(=O)[C@@H]2CC(=O)N(C)[C@@H](CC(C)C)C(=O)N(C)[C@H](Cc3nc(C(F)(F)F)no3)C(=O)N[C@H](Cc3ccccc3)COc3ccc4cnc(C)cc4c3C(=O)N2)n1 shows EC50 strictly lower than 90 nM. yes (1)

Quick one: COc1nccc2c1C(=O)N[C@H](C(=O)NCCc1noc(C3CC3)n1)CC(=O)N(C)[C@@H](CC(C)C)C(=O)N(C)[C@H](COC1CCC1)C(=O)N[C@H](Cc1ccccc1)CO2 no (0)

Quick one: COc1noc(CCNC(=O)[C@@H]2CC(=O)N(C)[C@@H](CC(C)C)C(=O)N3CCCC[C@@H]3C(=O)N[C@H](Cc3ccccc3)COc3ccc4ncc(F)cc4c3C(=O)N2)n1 no (0)

Quick one: CCOCC[C@@H]1C(=O)N[C@H](Cc2ccccc2)COc2cc(C)nc(OC)c2C(=O)N[C@H](C(=O)NCCc2cc(C3CC3)no2)CC(=O)N(C)[C@@H](CC(C)C)C(=O)N1C no (0)

====

- systemUnderTest: human F508del-CFTR (Homo sapiens, UniProt P13569, DEL508-508)
- experimentalProtocol: F508del-CFTR cell surface expression (corrector activity), DiscoveRx ß-galactosidase complementation chemiluminescence assay in recombinant U2OS cell line
- cond: EC50, F508del-CFTR cell surface expression, U2OS cells, 16h compound incubation; geomean of several measurements
valueType: pEC50
By convention, pEC50 is the negative base-10 log of a molar concentration.

Missing value: pEC50, human F508del-CFTR (Homo sapiens, UniProt P13569, DEL508-508), entry CC[C@@H]1C(=O)N[C@H](Cc2ccccc2)COc2ccc3ncc(F)cc3c2C(=O)N[C@H](C(=O)NCCc2noc(C3CC3)n2)CC(=O)N(C)[C@@H](CC(C)C)C(=O)N1C [Example 803] . Fill in? 6.61

Quick one: COc1nccc2c1C(=O)N[C@H](C(=O)NCCc1cc(C)no1)CC(=O)N(C)[C@@H](CC(C)C)C(=O)N(C)[C@H](CCOC1CCCCC1)C(=O)N[C@H](Cc1ccccc1)CO2 [Example 858] 7.02

Quick one: CC(C)C[C@H]1C(=O)N(C)[C@@H](CC(F)F)C(=O)N[C@H](Cc2ccccc2)COc2ccc3ncc(F)cc3c2C(=O)N[C@H](C(=O)NCCc2noc(C3CC3)n2)CC(=O)N1C [Example 802] 6.14

====

- systemUnderTest: human F508del-CFTR (Homo sapiens, UniProt P13569, DEL508-508)
- experimentalProtocol: F508del-CFTR cell surface expression (corrector activity), DiscoveRx ß-galactosidase complementation chemiluminescence assay in recombinant U2OS cell line;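 further: U2OS cells co-expressing ProLink-tagged F508del-CFTR and a membrane-anchored enzyme acceptor, where more surface CFTR restores β-galactosidase activity measured by chemiluminescence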
- cond: U2OS, in relation to Emax of corrector lumacaftor (=100%); arithmetic mean values
valueType: Emax (%)
Reply numerically in %, unit not repeated.

What does the data say about its Emax? Entry: Cc1cc(CCNC(=O)[C@@H]2CC(=O)N(C)[C@@H](CC(C)C)C(=O)N(C)[C@H](C(C)C)C(=O)N[C@H](Cc3ccccc3)COc3cnc4ccccc4c3C(=O)N2)on1 330

Quick one: CC(C)C[C@H]1C(=O)N(C)C2(CC2)C(=O)N[C@H](Cc2ccccc2)COc2cnc3ccccc3c2C(=O)N[C@H](C(=O)NCCc2nc(CC3CC3)no2)CC(=O)N1C 315

Quick one: CC(C)C[C@H]1C(=O)N2CCCC[C@@H]2C(=O)N[C@H](Cc2ccccc2)COc2cnc3c(F)cccc3c2C(=O)N[C@H](C(=O)NCCc2cc(C3CC3)on2)CC(=O)N1C 297

Quick one: Cc1cc(CCNC(=O)[C@@H]2CC(=O)N(C)[C@@H](CC3CCCC3)C(=O)N(C)C3(CC3)C(=O)N[C@H](Cc3ccccc3)COc3cnc4ccccc4c3C(=O)N2)on1 413

Quick one: COc1nc(C)cc2c1C(=O)N[C@H](C(=O)NCCc1nc(C3CC3)no1)CC(=O)N(C)[C@@H](CC(C)C)C(=O)N1CCCC[C@@H]1C(=O)N[C@H](Cc1ccccc1)CO2 327

Quick one: CC(C)C[C@H]1C(=O)N2CCCC[C@@H]2C(=O)N[C@H](Cc2ccccc2)COc2cnc3c(F)cccc3c2C(=O)N[C@H](C(=O)NCCc2nc(C3CC3)no2)CC(=O)N1C 308

Quick one: Cc1cc(CCNC(=O)[C@@H]2CC(=O)N(C)[C@@H](CC(C)C)C(=O)N(C)[C@H](CC3CCCCC3)C(=O)N[C@H](Cc3ccccc3)COc3cnc4ccccc4c3C(=O)N2)on1 284

Quick one: COc1nc(C)cc2c1C(=O)N[C@H](C(=O)NCCc1noc(C3CC3)n1)CC(=O)N(C)[C@@H](CC(C)C)C(=O)N1CCCC[C@@H]1C(=O)N[C@H](Cc1ccccc1)CO2 307

Quick one: CC(C)C[C@H]1C(=O)N(CCC2CCCCC2)CC(=O)N[C@H](Cc2ccccc2)COc2ccncc2C(=O)N[C@H](C(=O)NCCc2ccc3c(c2)OCO3)CC(=O)N1C 160

Quick one: COc1cccc(CCNC(=O)[C@@H]2CC(=O)N(C)[C@@H](CC(C)C)C(=O)N(C)CC(=O)N[C@H](Cc3ccccc3)COc3cnc(OC)cc3C(=O)N2)c1 182
